Cited source for all entries: patent US9006241B2

Measured pEC50, listed per entry for reference.
Tested on: MDA-MB-231 (breast cancer)
Assay remarks: FMCA, MDA-MB-231
Assay type: cell-based
Experimental context: Homo sapiens, MDA-MB-231 breast cancer cells
pEC50: −log10 of the molar value.
Assay readout: pEC50

[[record]]
chemical_structure = "COc1ccc2[nH]cc(CCNc3nccc(Nc4ccc5c(c4)cc(C)n5C)n3)c2c1"
assay_readout = "pEC50"
observed = 6.42

[[record]]
chemical_structure = "COc1ccc2[nH]cc(CCNc3nccc(Nc4ccc5[nH]c(C)cc5c4)n3)c2c1"
assay_readout = "pEC50"
observed = 7.00

[[record]]
chemical_structure = "COc1ccc2[nH]cc(CCNc3nccc(Nc4ccc5[nH]c(CO)cc5c4)n3)c2c1"
assay_readout = "pEC50"
observed = 6.82

[[record]]
chemical_structure = "COc1ccc2[nH]cc(CCNc3nccc(Nc4ccc5[nH]c(C)nc5c4)n3)c2c1"
assay_readout = "pEC50"
observed = 5.72

[[record]]
chemical_structure = "CCOc1ccc2[nH]cc(CCNc3nccc(Nc4ccc5[nH]c(C)cc5c4)n3)c2c1"
assay_readout = "pEC50"
observed = 7.24


###

Test system: U-937 (lymphoma)
Assay remarks: FMCA, U-937
Type: cell-based
Experimental context: Homo sapiens, U-937 lymphoma cells
pEC50: −log10 of the molar value.
Documented pEC50 across a set of compounds
Assay readout: pEC50

[[record]]
compound = "COc1ccc2[nH]cc(CCNc3nccc(Nc4ccc5c(c4)cc(C)n5C)n3)c2c1 [Example 13]"
observed = 7.52

[[record]]
compound = "COc1ccc2[nH]cc(CCNc3nccc(Nc4ccc5[nH]c(C)nc5c4)n3)c2c1 [Example 19]"
observed = 7.00

[[record]]
compound = "COc1ccc2[nH]cc(CCNc3nccc(Nc4ccc5[nH]c(CO)cc5c4)n3)c2c1 [Example 15]"
observed = 7.43

[[record]]
compound = "COc1ccc2[nH]cc(CCNc3nc(C)cc(Nc4ccc5[nH]c(C)cc5c4)n3)c2c1 [Example 27]"
observed = 7.39


###

The following compounds are listed with their measured EC50 values.
System: HL-60 (leukemia)
Assay remarks: FMCA, HL-60
Format: cell-based
Experimental context: Homo sapiens, HL-60 leukemia cells
Text: The Fluorometric Microculture Cytotoxicity Assay, FMCA (Larsson, R., et al.; Anticancer Res, 1989, 9, 1111-1119), is a three day non-clonogenic microplate-based cell viability assay used for measurement of the cytotoxic and/or cytostatic effect of compounds in vitro (Lindhagen, E. et al.; Nat. Protoc., 2008, 3, 1364-1369). […]
Assay readout: EC50 (nM)

[[record]]
chemical_structure = "COc1ccc2[nH]cc(CCNc3nccc(Nc4ccc5[nH]c(CO)cc5c4)n3)c2c1"
observed = 31

[[record]]
chemical_structure = "COc1ccc2[nH]cc(CCNc3nccc(Nc4ccc5[nH]c(C)cc5c4)n3)c2c1"
observed = 9.1

[[record]]
chemical_structure = "COc1ccc2[nH]cc(CCNc3nccc(Nc4ccc5c(c4)cc(C)n5C)n3)c2c1"
observed = 20

[[record]]
chemical_structure = "COc1ccc2[nH]cc(CCNc3nccc(Nc4ccc5[nH]c(C)nc5c4)n3)c2c1"
observed = 92

[[record]]
chemical_structure = "CCOc1ccc2[nH]cc(CCNc3nccc(Nc4ccc5[nH]c(C)cc5c4)n3)c2c1"
observed = 8.2


###

Tested on: MIA PaCa-2 (pancreatic cancer)
Assay remarks: FMCA, MIA PaCa-2
Type: cell-based
Experimental context: Homo sapiens, MIA PaCa-2 pancreatic cancer cells
Mark label 1 only when EC50 stays strictly below 20 nM. Values equal to the cut-off are label 0.

[[record]]
chemical_structure = "COc1ccc2[nH]cc(CCNc3nccc(Nc4ccc5[nH]c(CO)cc5c4)n3)c2c1"
cat = "label 0"

[[record]]
chemical_structure = "COc1ccc2[nH]cc(CCNc3nccc(Nc4ccc5[nH]c(C)cc5c4)n3)c2c1"
cat = "label 1"

[[record]]
chemical_structure = "COc1ccc2[nH]cc(CCNc3nccc(Nc4ccc5[nH]c(C)nc5c4)n3)c2c1"
cat = "label 0"

[[record]]
chemical_structure = "COc1ccc2[nH]cc(CCNc3nccc(Nc4ccc5c(c4)cc(C)n5C)n3)c2c1"
cat = "label 0"

[[record]]
chemical_structure = "CCOc1ccc2[nH]cc(CCNc3nccc(Nc4ccc5[nH]c(C)cc5c4)n3)c2c1"
cat = "label 1"


###

Test system: U-937 (lymphoma)
Assay remarks: FMCA, U-937
Format: cell-based
Experimental context: Homo sapiens, U-937 lymphoma cells
Text: The Fluorometric Microculture Cytotoxicity Assay, FMCA (Larsson, R., et al.; Anticancer Res, 1989, 9, 1111-1119), is a three day non-clonogenic microplate-based cell viability assay used for measurement of the cytotoxic and/or cytostatic effect of compounds in vitro (Lindhagen, E. et al.; Nat. Protoc., 2008, 3, 1364-1369). […]
pEC50: −log10 of the molar value.
Reported pEC50 values follow for various molecules
Assay readout: pEC50

[[record]]
chemical_structure = "CCOc1ccc2[nH]cc(CCNc3nccc(Nc4ccc5[nH]c(C)cc5c4)n3)c2c1"
system_tested = "U-937 (lymphoma)"
assay_readout = "pEC50"
observed = 7.66

[[record]]
chemical_structure = "COc1ccc2[nH]cc(CCNc3nccc(Nc4ccc5[nH]c(C)c(C)c5c4)n3)c2c1"
system_tested = "U-937 (lymphoma)"
assay_readout = "pEC50"
observed = 7.14

[[record]]
chemical_structure = "Cc1ccc2[nH]cc(CCNc3nccc(Nc4ccc5[nH]c(C)cc5c4)n3)c2c1"
system_tested = "U-937 (lymphoma)"
assay_readout = "pEC50"
observed = 7.10

[[record]]
chemical_structure = "COc1ccc2[nH]cc(CCNc3nccc(Nc4ccc5[nH]c(C)cc5c4)n3)c2c1"
system_tested = "U-937 (lymphoma)"
assay_readout = "pEC50"
observed = 7.89


###

// EC50 lookup, one value per entry
Tested on: 8226/Dox40 (doxorubicin-resistant myeloma)
Assay remarks: FMCA, 8226/Dox40
Format: cell-based
Experimental context: 8226/Dox40 doxorubicin-resistant myeloma cells
Assay readout: EC50 (nM)

[[record]]
chemical_structure = "COc1ccc2[nH]cc(CCNc3nccc(Nc4ccc5[nH]c(C)c(C)c5c4)n3)c2c1"
system_tested = "8226/Dox40 (doxorubicin-resistant myeloma)"
observed = 280

[[record]]
chemical_structure = "COc1ccc2[nH]cc(CCNc3nccc(Nc4ccc5[nH]c(C)cc5c4)n3)c2c1"
system_tested = "8226/Dox40 (doxorubicin-resistant myeloma)"
observed = 110

[[record]]
chemical_structure = "COc1ccc2[nH]cc(CCNc3nc(C)cc(Nc4ccc5[nH]c(C)cc5c4)n3)c2c1"
system_tested = "8226/Dox40 (doxorubicin-resistant myeloma)"
observed = 300

[[record]]
chemical_structure = "COc1ccc2[nH]cc(CCNc3nccc(Nc4ccc5[nH]c(CO)cc5c4)n3)c2c1"
system_tested = "8226/Dox40 (doxorubicin-resistant myeloma)"
observed = 4300

[[record]]
chemical_structure = "COc1ccc2[nH]cc(CCNc3nccc(Nc4ccc5[nH]c(C)nc5c4)n3)c2c1"
system_tested = "8226/Dox40 (doxorubicin-resistant myeloma)"
observed = 30000

[[record]]
chemical_structure = "COc1ccc2[nH]cc(CCNc3nccc(Nc4ccc5c(c4)cc(C)n5C)n3)c2c1"
system_tested = "8226/Dox40 (doxorubicin-resistant myeloma)"
observed = 180

[[record]]
chemical_structure = "Cc1ccc2[nH]cc(CCNc3nccc(Nc4ccc5[nH]c(C)cc5c4)n3)c2c1"
system_tested = "8226/Dox40 (doxorubicin-resistant myeloma)"
observed = 200

[[record]]
chemical_structure = "CCOc1ccc2[nH]cc(CCNc3nccc(Nc4ccc5[nH]c(C)cc5c4)n3)c2c1"
system_tested = "8226/Dox40 (doxorubicin-resistant myeloma)"
observed = 160


###

System: CEM/VM1 (teniposide-resistant leukemia)
Assay remarks: FMCA, CEM/VM1
Type: cell-based
Experimental context: Homo sapiens, CEM/VM1 teniposide-resistant leukemia cells
Recorded EC50 for the following molecules
Assay readout: EC50 (nM)

[[record]]
molecule = "COc1ccc2[nH]cc(CCNc3nccc(Nc4ccc5[nH]c(C)nc5c4)n3)c2c1 [Example 19]"
observed = 62

[[record]]
molecule = "COc1ccc2[nH]cc(CCNc3nc(C)cc(Nc4ccc5[nH]c(C)cc5c4)n3)c2c1 [Example 27]"
observed = 44

[[record]]
molecule = "COc1ccc2[nH]cc(CCNc3nccc(Nc4ccc5c(c4)cc(C)n5C)n3)c2c1 [Example 13]"
observed = 38

[[record]]
molecule = "CCOc1ccc2[nH]cc(CCNc3nccc(Nc4ccc5[nH]c(C)cc5c4)n3)c2c1 [Example 5]"
observed = 17

[[record]]
molecule = "Cc1ccc2[nH]cc(CCNc3nccc(Nc4ccc5[nH]c(C)cc5c4)n3)c2c1 [Example 9]"
observed = 64

[[record]]
molecule = "COc1ccc2[nH]cc(CCNc3nccc(Nc4ccc5[nH]c(C)c(C)c5c4)n3)c2c1 [Example 14]"
observed = 51

[[record]]
molecule = "COc1ccc2[nH]cc(CCNc3nccc(Nc4ccc5[nH]c(CO)cc5c4)n3)c2c1 [Example 15]"
observed = 71

[[record]]
molecule = "COc1ccc2[nH]cc(CCNc3nccc(Nc4ccc5[nH]c(C)cc5c4)n3)c2c1 [Example 4]"
observed = 6.6

